Molecular target: T1, KIAA0807 (PDZ domain)-GST fusion protein (human, UniProt Q6P0Q8 1104-1192)
T1 construct: also called K807; KIAA807; not shown: glutathione S-transferase encoded by vector pGEX-3X (Pharmacia)
T1 sequence: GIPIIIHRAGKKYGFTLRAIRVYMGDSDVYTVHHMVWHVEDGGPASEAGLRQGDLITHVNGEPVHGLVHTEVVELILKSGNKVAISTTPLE
Assay: G assay competition against 1 uM BLR-1 20-mer
Ends that are not written are not given here.
Parameter: IC50. Scope: all listed entries.

binder="Ac-LTTF (it is an N-acetyl tetrapeptide) [acetyl-LTTF]" reported_property=IC50 recorded_result="1000 nM"

Here's the next entry for you.
Reported IC50 ( NATSLTTF (also called BLR-1 8-mer) [8-mer peptide corresponding to the C-terminus of BLR-1] ) = > 100000 nM
